target: Gag-Pol polyprotein [600-1027,G789A]/[600-1155,G789A] (Human immunodeficiency virus 1, UniProt P03366, G789A)
Construct: 600-1027; 600-1155
method-notes: HIV-1 RT Assay
We begin with a simple list: items and their reported IC50.
Field format: number, assumed nM, no unit text.

> print(dat)
                                   molecule  measured.result
1  CCN1c2ncc(CCc3ccncc3)cc2C(=O)N(C)c2ccc(Cl)nc21 [2,8-Substituted Dipyridodiazepinone 37]               30

Continue with the molecule presented below.
Prompt line: Which value of IC50 has been reported for CCN1c2ncc(CCc3ccccc3)cc2C(=O)N(C)c2ccc(Cl)nc21 [2,8-Substituted Dipyridodiazepinone 36] in the records?
Response line: 120
